# SYSTEM NAME: EZH2 (Homo sapiens (Human))
# Sequence (Q15910 other isoform, or with tags, fused parts or gaps): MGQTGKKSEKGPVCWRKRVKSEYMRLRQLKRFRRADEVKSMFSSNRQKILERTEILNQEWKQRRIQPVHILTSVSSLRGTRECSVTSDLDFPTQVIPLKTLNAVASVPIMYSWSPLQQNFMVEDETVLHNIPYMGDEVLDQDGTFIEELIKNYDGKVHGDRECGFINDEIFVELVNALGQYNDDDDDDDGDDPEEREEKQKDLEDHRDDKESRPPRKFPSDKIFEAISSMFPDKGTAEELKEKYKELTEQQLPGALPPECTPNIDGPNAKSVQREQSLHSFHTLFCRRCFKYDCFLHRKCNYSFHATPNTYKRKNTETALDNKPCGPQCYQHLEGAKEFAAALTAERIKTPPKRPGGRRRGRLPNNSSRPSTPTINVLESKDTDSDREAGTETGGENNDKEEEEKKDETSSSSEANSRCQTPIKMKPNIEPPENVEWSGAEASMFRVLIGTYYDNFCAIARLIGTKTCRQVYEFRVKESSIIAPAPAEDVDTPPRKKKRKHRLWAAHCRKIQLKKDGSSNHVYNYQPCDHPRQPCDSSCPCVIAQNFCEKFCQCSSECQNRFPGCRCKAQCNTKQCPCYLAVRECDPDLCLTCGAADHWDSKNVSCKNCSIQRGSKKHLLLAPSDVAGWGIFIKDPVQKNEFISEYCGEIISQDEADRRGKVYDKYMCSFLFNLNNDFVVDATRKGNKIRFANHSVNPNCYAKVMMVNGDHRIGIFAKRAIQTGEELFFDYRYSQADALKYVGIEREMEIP
# Sequence (O75530 whole entry partner): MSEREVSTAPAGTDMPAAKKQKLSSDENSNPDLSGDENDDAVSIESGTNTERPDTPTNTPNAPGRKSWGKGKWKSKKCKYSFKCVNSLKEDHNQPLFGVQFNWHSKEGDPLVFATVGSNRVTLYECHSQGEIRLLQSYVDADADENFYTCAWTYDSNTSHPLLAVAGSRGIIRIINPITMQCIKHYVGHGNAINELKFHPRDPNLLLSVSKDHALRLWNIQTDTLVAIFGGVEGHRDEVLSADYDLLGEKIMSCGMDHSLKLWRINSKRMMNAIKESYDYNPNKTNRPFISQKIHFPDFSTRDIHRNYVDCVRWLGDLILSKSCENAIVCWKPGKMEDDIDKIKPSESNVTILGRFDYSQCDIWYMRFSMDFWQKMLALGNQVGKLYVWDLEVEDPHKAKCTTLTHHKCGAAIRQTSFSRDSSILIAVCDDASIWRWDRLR
# Sequence (Q15022 whole entry partner): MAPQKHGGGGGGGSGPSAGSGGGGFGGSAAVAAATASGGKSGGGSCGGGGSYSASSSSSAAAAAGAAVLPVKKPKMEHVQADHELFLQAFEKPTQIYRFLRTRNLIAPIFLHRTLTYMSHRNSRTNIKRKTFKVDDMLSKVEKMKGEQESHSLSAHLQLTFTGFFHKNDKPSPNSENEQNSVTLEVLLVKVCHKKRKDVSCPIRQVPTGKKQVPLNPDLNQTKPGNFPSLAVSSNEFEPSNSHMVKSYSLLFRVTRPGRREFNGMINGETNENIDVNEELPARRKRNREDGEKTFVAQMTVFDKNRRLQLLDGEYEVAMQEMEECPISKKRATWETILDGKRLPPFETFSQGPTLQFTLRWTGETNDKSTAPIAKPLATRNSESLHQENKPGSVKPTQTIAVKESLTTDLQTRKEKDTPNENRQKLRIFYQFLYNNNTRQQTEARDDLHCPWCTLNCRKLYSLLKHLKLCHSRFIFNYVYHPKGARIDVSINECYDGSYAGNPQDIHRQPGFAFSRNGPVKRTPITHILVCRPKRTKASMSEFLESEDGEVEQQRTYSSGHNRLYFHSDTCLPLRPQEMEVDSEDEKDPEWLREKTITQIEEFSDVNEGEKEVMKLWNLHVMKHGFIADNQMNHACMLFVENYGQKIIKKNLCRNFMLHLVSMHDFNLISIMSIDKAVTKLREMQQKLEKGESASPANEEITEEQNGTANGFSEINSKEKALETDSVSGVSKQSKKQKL
# Sequence (Q09028 whole entry partner): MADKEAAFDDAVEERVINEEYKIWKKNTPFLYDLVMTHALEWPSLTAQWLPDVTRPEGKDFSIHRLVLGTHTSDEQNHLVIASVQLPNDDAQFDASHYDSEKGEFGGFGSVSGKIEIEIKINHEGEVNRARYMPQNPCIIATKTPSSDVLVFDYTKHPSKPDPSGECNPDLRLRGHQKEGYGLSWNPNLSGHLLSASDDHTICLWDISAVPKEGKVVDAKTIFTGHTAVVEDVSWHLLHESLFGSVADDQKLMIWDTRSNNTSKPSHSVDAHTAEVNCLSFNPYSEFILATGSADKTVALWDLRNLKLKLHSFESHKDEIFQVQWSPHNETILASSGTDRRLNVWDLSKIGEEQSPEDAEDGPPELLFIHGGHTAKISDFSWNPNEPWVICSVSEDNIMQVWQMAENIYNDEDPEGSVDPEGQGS
# ASSAY NOTES: PRC2 enzyme assay on peptide substrates
# Type: biochemical
# ASSAY CONTEXT: PRC2 enzyme assays on peptide substrates; 4 nM enzyme, 30 min preincubation at 25° C.; read-out: EZH2 IC50
# IC50 per entry

Known IC50 results, listed for orientation:
Param item = `Cc1cc(C)c(CNC(=O)c2cc(C3=CC(C)(C)NC(C)(C)C3)cc3c2cnn3C2CCN(C(=O)C(C)(C)C)CC2)c(=O)[nH]1` ; retrieve measured IC50.
< 0.3 µM

Param item = `Cc1cc(C)c(CNC(=O)c2cc(N3CCCC3)nc3c2cnn3C(C)C)c(=O)[nH]1` ; retrieve measured IC50.
3 to 10 µM

Param item = `Cc1cc(C)c(CNC(=O)c2cc(C(=O)N(C)C)nc3c2cnn3C(C)C)c(=O)[nH]1` ; retrieve measured IC50.
3 to 10 µM

Others:
Param item = `Cc1cc(C)c(CNC(=O)c2cc(C3=CCN(C(=O)C4CNC4)CC3)cc3c2cnn3C2CCCC2)c(=O)[nH]1` ; retrieve measured IC50.
< 0.3 µM

Param item = `Cc1cc(C)c(CNC(=O)c2cc(Br)cc3c2cnn3C2CCN(C(=O)C3CCNCC3)CC2)c(=O)[nH]1` ; retrieve measured IC50.
< 0.3 µM
